Provenance of the data: the RNAGym collection of RNA variant scans (doi:10.1073/pnas.2313332121)

B1: TPR 5TU (parent)
chain: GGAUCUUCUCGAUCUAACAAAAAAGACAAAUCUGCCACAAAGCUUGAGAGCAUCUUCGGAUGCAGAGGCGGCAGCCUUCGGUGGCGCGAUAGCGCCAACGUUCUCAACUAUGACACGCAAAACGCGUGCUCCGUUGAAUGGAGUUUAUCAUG

# Variants of: B1
# ASSAY: polymerase ribozyme fitness, log enrichment relative to wild type (log ratio); higher = more active; in vitro selection for triplet polymerase activity
Variants at the floor of the assay were thinned out.
Reported polymerase ribozyme fitness (log ratio) is given for each of the following variants.
// return a plain number; no unit text

Recorded results for 6 variants are shown here.
VARIANT STRING | polymerase ribozyme fitness (log ratio)
C87U U101G A137C | -3.73
A19C U31C | 1.56
A52G A73G | -0.266
A26C C35U U55A C76U C87G G92U A98G | -3.11
C57G A60C | -2.4
A73G C93U G141U | 0.326

Note: attention shifts to another entry.
stdin: Field request: polymerase ribozyme fitness (log ratio) | item: C57U C87U C103G
stdout: -1.94
